# credit: patent US20240343761A1

molecular target: hAPJ receptor (Homo sapiens); construct: expressed in transfected cells; host or cells: HEK293, transient transfection with PEI; assay: BRET-based β-arrestin2 recruitment assay in HEK293 cells; format: cell-based; settings: HEK293; Table V; read-out: ß-arr2 Emax
Sequence (P35414 whole entry): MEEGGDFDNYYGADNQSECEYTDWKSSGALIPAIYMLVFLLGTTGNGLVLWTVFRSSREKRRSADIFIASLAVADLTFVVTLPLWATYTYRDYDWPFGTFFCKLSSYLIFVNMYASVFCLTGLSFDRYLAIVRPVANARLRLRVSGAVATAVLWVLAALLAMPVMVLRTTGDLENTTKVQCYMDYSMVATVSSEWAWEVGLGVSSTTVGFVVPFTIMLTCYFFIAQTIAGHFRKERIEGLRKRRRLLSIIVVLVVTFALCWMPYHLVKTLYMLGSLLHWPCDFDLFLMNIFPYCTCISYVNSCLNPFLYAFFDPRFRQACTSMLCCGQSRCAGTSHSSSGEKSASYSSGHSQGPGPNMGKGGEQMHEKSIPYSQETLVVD
property_label: Emax (%)
Answers are plain numbers, in %.

Req: Report Emax, nothing else, for this molecule: CCCC[C@H](NC(=O)[C@@H]1CCCN1C(=O)CNC(=O)[C@H](CCCCN)NC(=O)[C@@H]1CC=CC[C@H](NC(=O)[C@H](CCCNC(=N)N)NC(=O)[C@@H]2CCC(=O)N2)C(=O)N[C@@H](CCCNC(=N)N)C(=O)N[C@@H](CC(C)C)C(=O)N[C@@H](CO)C(=O)N1)C(=O)N1CCC[C@H]1C(=O)N[C@@H](Cc1ccccc1)C(=O)O [Compound 97, Pyr-R-c[X-R-L-S-X]c-K-G-P-Nle-P-F, reference compound]
Resp: 98

Req: Report Emax, nothing else, for this molecule: CCCC[C@H](NC(=O)[C@@H]1CCCN1C(=O)CNC(=O)[C@H](CCCCN)NC(=O)[C@@H]1CC=CC[C@H](N)C(=O)N[C@@H](CCCNC(=N)N)C(=O)N[C@@H](CC(C)C)C(=O)N[C@@H](CO)C(=O)N1)C(=O)N1CCC[C@H]1C(=O)N[C@@H](Cc1ccccc1)C(=O)O [Compound 20, NH2-c[X-R-L-S-X]c-K-G-P-Nle-P-F]
Resp: 98

Further cases:
Req: Report Emax, nothing else, for this molecule: CC(C)C[C@@H]1NC(=O)[C@H](CCCNC(=N)N)NC(=O)[C@@H](N)CC=CC[C@@H](C(=O)N[C@@H](CCCCN)C(=O)NCC(=O)N2CCC[C@H]2C(=O)N[C@H](Cc2ccc3ccccc3c2)C(=O)O)NC(=O)[C@H](CO)NC1=O [Compound 43, NH2-c[X-R-L-S-X]c-K-G-P-(D-2Nal)]
Resp: 55
